- SYSTEM NAME: HLA-A0201 (Homo sapiens, UniProt P04439, D140Y/D185E/D98H/E176V/E277Q/G131W/G231S/I119V/I121R/I166T/I218V/L300P/L318F/N151K/N90K/P208A/P217A/Q86G/Q94H/R138H/R169H/T345S)
- Construct: expressed in transfected cells; host or cells: HMy2.CIR
- ASSAY NAME: cell-based
- Assay type: binding
- PROTOCOL CONDITIONS: HLA-A0201 HMy2.CIR cells; competitor peptide 5μM; 24 hours; flow cytometry; read-out: 5μM Inhibition (%)
- Procedure: HMy2.CIR cell line was purchased (Zhongqiao xinzhou Biotech, Shanghai) and maintained in complete IMDM medium with 10% FCS and 1% penicillin/streptomycin. […] The plate was centrifuged at 600 rpm for 5 min at room temperature (RT). […] Finally, cells were resuspended with 150 μL PBS and analyzed with flow cytometry. […] Binding affinity of unlabeled peptide with the indicated HLA-A molecule is assessed by IC50.
Residues, ends and D or L forms follow the SMILES beside them.
MEASUREMENT KIND: inhibition at 5 µM (%)
Field: numeric (%). Do not append units.

Q. Give inhibition at 5 µM for the following compound: CC[C@H](C)[C@H](NC(=O)[C@H](Cc1c[nH]c2ccccc12)NC(=O)[C@@H](NC(=O)CNC(=O)[C@H](Cc1ccccc1)NC(=O)[C@H](CO)NC(=O)[C@@H](NC(=O)[C@H](CC(C)C)NC(=O)[C@@H](N)Cc1ccc(O)cc1)C(C)C)C(C)C)C(=O)O [Epitope P11]
A. 81.2

Q. Using known records, supply inhibition at 5 µM for CC[C@H](C)[C@H](NC(=O)[C@@H](NC(=O)[C@H](CO)NC(=O)[C@H](CC(C)C)NC(=O)[C@H](Cc1c[nH]c2ccccc12)NC(=O)[C@@H](N)C(C)C)C(C)C)C(=O)N[C@@H](Cc1c[nH]c2ccccc12)C(=O)N[C@@H](CCSC)C(=O)N[C@@H](CCSC)C(=O)N[C@@H](Cc1c[nH]c2ccccc12)C(=O)O [Epitope P51] (H-VWLSVIWMMW-OH; N-terminus and C-terminus assumed)
A. 2

Q. Note down inhibition at 5 µM recorded for CC(C)C[C@H](N)C(=O)N[C@@H](Cc1ccc(O)cc1)C(=O)N[C@@H](CO)C(=O)N[C@@H](CO)C(=O)N[C@H](C(=O)N[C@H](C(=O)N1CCC[C@H]1C(=O)N[C@@H](CS)C(=O)N[C@@H](Cc1ccccc1)C(=O)O)C(C)C)[C@@H](C)O [Epitope P55] (H-LYSSTVPCF-OH; N-terminus and C-terminus assumed)
A. 8.2

Q. Give inhibition at 5 µM for CC(C)C[C@H](N)C(=O)N[C@@H](Cc1ccc(O)cc1)C(=O)N[C@@H](CO)C(=O)N[C@@H](CO)C(=O)N[C@H](C(=O)N[C@H](C(=O)N1CCC[C@H]1C(=O)N[C@H](C(=O)N[C@@H](Cc1ccccc1)C(=O)O)C(C)C)C(C)C)[C@@H](C)O [Epitope P56] (H-LYSSTVPVF-OH; N-terminus and C-terminus assumed)
A. 5.48

Q. Report inhibition at 5 µM, nothing else, for this compound: CC[C@H](C)[C@H](NC(=O)[C@H](Cc1c[nH]cn1)NC(=O)[C@H](Cc1ccccc1)NC(=O)[C@H](Cc1c[nH]c2ccccc12)NC(=O)[C@H](CC(C)C)NC(=O)[C@@H](N)CC(C)C)C(=O)N[C@@H](CO)C(=O)N[C@@H](CS)C(=O)N[C@@H](CC(C)C)C(=O)O [Epitope P32]
A. 0
